B1: CPEB3 Ribozyme (parent)
chain: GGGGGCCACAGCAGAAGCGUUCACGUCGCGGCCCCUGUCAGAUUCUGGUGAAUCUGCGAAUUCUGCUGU

- Variants of: B1
- assay remarks: self-cleavage, relative activity (ratio to wild type); higher = more cleavage; co-transcriptional
Please use 1.0 whenever self-cleavage is not below 0.8, and 0.0 whenever it is.

> print(dat)
                            monomer.sequence  qualitative.label
 1  GGGGGCCACAGCAGAAGCGUUCACGUCGCGGCCCCCGUCAGAUUCUGGGGAAUCUGCGAAUUCUGCUGU [U36C U49G]                1.0
 2  GGGGGCCGCACCAGAAGCGUUCACGUCGCGGCCCCUGUCAGAUUCUGGUGAAUCUGCGAAUUCUGCUGU [A8G G11C]                0.0
 3  GGGGGCCACAGCAGAAGCGUUCAGGUCGCCGCCCCUGUCAGAUUCUGGUGAAUCUGCGAAUUCUGCUGU [C24G G30C]                0.0
 4  GGGGGCCACAGCAGAAGCGUUCCCGUCGCGGCCCCUGUCAGAAUCUGGUGAAUCUGCGAAUUCUGCUGU [A23C U43A]                0.0
 5  GGGGGCCACAGCAGAAGCGUUAACGUCGCGGCCCCUGUCAGAUUCUGGUGUAUCUGCGAAUUCUGCUGU [C22A A51U]                0.0
 6  GGGGGCCACAGCAGAAGCGUUCACGUCGCGGCCCCUGUCGGAUUCUGGCGAAUCUGCGAAUUCUGCUGU [A40G U49C]                1.0
 7  GGGGGCCACAGCAGAAGCGUUCACGUCGCGGCCCCUGUCAGAUCCUGGAGAAUCUGCGAAUUCUGCUGU [U44C U49A]                1.0
 8  GGGGGCCACAGCAGAAUCGUUCACGUAGCGGCCCCUGUCAGAUUCUGGUGAAUCUGCGAAUUCUGCUGU [G17U C27A]                0.0
 9  GGGGGCCACAGCAGAAGCGUGCACGUCGCGGCCCCUGUCAGAUUCUGGUGAAUCUGCGAAUUCUGGUGU [U21G C66G]                0.0
10  GGGGGCCACUGCAGAAGCGUUCACGUCGCGGCCCCUGUCAGAUUCUGGUGAAUCUCCGAAUUCUGCUGU [A10U G56C]                1.0
11  GGGGGCCACAGCAGAAGCGUUCACGUCGCGGCCCCUGUCAGAUUCUGGUAAAUCAGCGAAUUCUGCUGU [G50A U55A]                1.0
12  GGGGGCCACAGCAGAAACGUUCACGUCACGGCCCCUGUCAGAUUCUGGUGAAUCUGCGAAUUCUGCUGU [G17A G28A]                0.0
13  GGGGGCCACAGUAGAAGCGUUCACGUCGCGGCCCCUGUCAGAUUCUGGUGAAUCGGCGAAUUCUGCUGU [C12U U55G]                0.0
14  GGGGGCCACAGCAGAAGCGUUCACGUCGCGGCCCCUGUCAGAUUCUGCUGAAUCUGCGACUUCUGCUGU [G48C A60C]                0.0
15  GGGGGGCACAGCAGAAGCGUUCACGUCGCGGCUCCUGUCAGAUUCUGGUGAAUCUGCGAAUUCUGCUGU [C6G C33U]                0.0
16  GGGGGCCACAGCAGAAGCGUUCACGUCGCGGCCCCUGUCAGAAUCUUGUGAAUCUGCGAAUUCUGCUGU [U43A G47U]                1.0
17  GGGGGCCACAGCAGAAGCGUCCACGUCCCGGCCCCUGUCAGAUUCUGGUGAAUCUGCGAAUUCUGCUGU [U21C G28C]                0.0
18  GGGGGCCACAGCAGAAGCGUUCAGGUCGCGGCCCCUGUCAGAUUCUGGUGAAUCUGCGAAUUUUGCUGU [C24G C63U]                0.0
19  GGGGGCCACAUCAGAAGCGUUCAGGUCGCGGCCCCUGUCAGAUUCUGGUGAAUCUGCGAAUUCUGCUGU [G11U C24G]                0.0
20  GGGGGCCACAGCAGAAGCCUUCACGUCGAGGCCCCUGUCAGAUUCUGGUGAAUCUGCGAAUUCUGCUGU [G19C C29A]                0.0
